Reported IC50 values follow for various compounds
- Target entity: human HSP90α (Homo sapiens)
- Test: radioligand filter binding test, competition with [3H]17AAG for HSP90
- Condition label: recombinant human HSP90α, [3H]17AAG 0.08 μM, 22° C., 30 min

Here's what some known entries look like.
Ask | Look at this compound and give its reported IC50. `COc1ccc(-c2c(C#N)c(N)nc3sc(C(N)=O)c(N)c23)cc1NC(=O)c1ccccc1C(F)(F)F`
Reply | 11 µM

Ask | Look at this compound and give its reported IC50. `COc1ccc(-c2c(C#N)c(N)nc3sc(C(N)=O)c(N)c23)cc1NC(=O)c1ccncc1`
Reply | 1.9 µM

Ask | Look at this compound and give its reported IC50. `COc1ccc(-c2c(C#N)c(N)nc3sc(C(N)=O)c(N)c23)cc1NC(=O)C(C)C`
Reply | 5.5 µM

***
Ask | Look at this compound and give its reported IC50. `COc1ccc(-c2c(C#N)c(N)nc3sc(C(N)=O)c(N)c23)cc1NC(=O)c1ccc(C(F)(F)F)cc1`
Reply | 5.9 µM
